- Tgt: T1, PCSK9 (human, UniProt Q8NBP7 31-692, biotin on lysines (Sulfo-NHS-LC-biotin))
- T1 construct: also called PCSK9FL; hPCSK9 FL
- Assay: SPR
- Setup conditions: both partners purified
Readout label: pKd
The read-out pKd is expressed as -log10 of concentration in moles per litre.

Using the record for ECKGKGAKCSYYMGIDKGYVNYCCTGSCRSGKC (designed binder, Conotoxin-MVIIA scaffold) [PCSK9_CnTx1] , report its pKd. 5.35
